# Tested on: KARPAS-299
# protocol_notes: cells
# experimental_conditions: Homo sapiens, KARPAS-299, 72 h
# Description: Antiproliferative activity against human KARPAS299 cells expressing NMP-ALK assessed as reduction in cell viability incubated for 72 hrs by MTT assay
parameter: IC50 (nM)

C[C@@H](Oc1cc(-c2ccn(CCN(C)C)c(=O)c2)cnc1N)c1c(Cl)ccc(F)c1Cl    40

(I) C[C@@H](Oc1cc(-c2ccn(C)c(=O)c2)cnc1N)c1c(Cl)ccc(F)c1Cl
(II) CC(Oc1cc(-c2cc[nH]c(=O)c2)cnc1N)c1ccc(Cl)cc1 (stereo not given)
(III) CCOC(=O)Cn1ccc(-c2cnc(N)c(O[C@H](C)c3c(Cl)ccc(F)c3Cl)c2)cc1=O
Lookup: Falling order of IC50, please. Write the labels out in the order the request specifies.
Found: II, III, I
(II: 17800 nM, III: 210 nM, I: 40 nM)
